Molecular target: Mast/stem cell growth factor receptor Kit (Homo sapiens, UniProt P10721)
Sequence (P10721 whole entry, the tested form may be a part): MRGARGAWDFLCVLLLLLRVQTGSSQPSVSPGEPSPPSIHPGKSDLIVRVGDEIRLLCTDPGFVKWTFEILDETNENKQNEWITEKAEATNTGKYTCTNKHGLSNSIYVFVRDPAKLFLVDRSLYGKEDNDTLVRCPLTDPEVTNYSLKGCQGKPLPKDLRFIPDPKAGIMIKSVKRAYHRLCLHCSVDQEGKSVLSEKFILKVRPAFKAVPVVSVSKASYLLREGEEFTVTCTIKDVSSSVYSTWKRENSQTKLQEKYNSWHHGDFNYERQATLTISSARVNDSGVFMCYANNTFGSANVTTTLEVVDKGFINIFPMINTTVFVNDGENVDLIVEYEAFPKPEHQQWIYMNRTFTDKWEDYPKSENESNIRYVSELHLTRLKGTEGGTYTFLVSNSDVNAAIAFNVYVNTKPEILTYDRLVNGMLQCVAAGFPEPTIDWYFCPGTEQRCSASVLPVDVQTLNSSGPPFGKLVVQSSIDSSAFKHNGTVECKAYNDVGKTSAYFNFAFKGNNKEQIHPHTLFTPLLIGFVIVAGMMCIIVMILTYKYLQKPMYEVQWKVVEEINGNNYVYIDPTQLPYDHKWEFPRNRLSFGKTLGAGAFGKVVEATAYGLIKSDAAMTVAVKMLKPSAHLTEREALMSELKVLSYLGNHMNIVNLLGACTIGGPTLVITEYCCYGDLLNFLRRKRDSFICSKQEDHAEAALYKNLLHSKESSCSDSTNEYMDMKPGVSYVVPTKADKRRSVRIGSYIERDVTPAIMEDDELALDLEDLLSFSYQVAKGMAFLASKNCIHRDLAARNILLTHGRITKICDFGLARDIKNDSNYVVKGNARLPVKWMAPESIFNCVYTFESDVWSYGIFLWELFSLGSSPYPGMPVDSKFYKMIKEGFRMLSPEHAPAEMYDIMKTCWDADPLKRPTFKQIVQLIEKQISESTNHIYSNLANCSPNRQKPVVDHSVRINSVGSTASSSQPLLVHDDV
Assay: Competition Binding Assay: Competition binding assays used herein were developed, validated and performed as described in Fabian et al., Nature Biotechnology 2005, 23, 329-336. Kinases were produced as fusions to T7 phage (See, Fabian et al. or WO04/015142) or alternatively, the kinases were expressed in HEK-293 cells and subsequently tagged with DNA for PCR detection (See, WO08/005,310). […] The liganded beads were blocked with excess biotin and washed with blocking buffer (SeaBlock (Pierce), 1% BSA, 0.05% Tween 20, 1 mM DTT) to remove unbound ligand and to reduce non-specific binding. […] Test compounds were prepared as 100× stocks in DMSO and diluted into the aqueous environment. Kds were determined using an eleven point threefold serial dilutions. DMSO or control compounds were was added to control assays lacking a test compound.
pKd: −log10 of the molar value.
Measurement type: pKd

In [3]: df
Out[3]:
                      smiles_representation                               measured_on  measurement_type  measured
0  COc1cc2nc(-c3ccc(CC(=O)Nc4cc(C(C)(C)C(F)(F)F)nn4C)c(F)c3)cnc2cc1OCCN1CCOCC1  Mast/stem cell growth factor receptor Kit (Homo sapiens, UniProt P10721)               pKd    > 8.30

Short answer for COc1cc2ncc(-c3ccc(CC(=O)Nc4cc(C5(C(F)(F)F)CC5)on4)cc3)nc2cc1OC : pKd was > 8.30

Lab book: pKd of COc1cc2nc(-c3ccc(CC(=O)Nc4cc(C5(C)CC5)no4)c(F)c3)cnc2cc1OCCN1CCOCC1 noted as > 8.30
